- assay_system: Peptidyl-prolyl cis-trans isomerase FKBP1A (Homo sapiens) (UniProt P62942)
- Sequence (P62942 whole entry, looked up): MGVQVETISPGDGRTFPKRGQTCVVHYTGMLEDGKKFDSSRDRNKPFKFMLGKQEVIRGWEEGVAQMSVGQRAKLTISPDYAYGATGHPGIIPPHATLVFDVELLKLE
- procedure_details: small-molecule binding to FKBP12 – biophysical, NMR detection (AID 608)
- experimental_conditions: purified FKBP12
Activity calls are given as the source filed them. How the calls were made is not given here.
Labels: y for active, n for inactive

1) O=C1CNC(=O)N1Cc1ccc(Br)cc1
n
2) NC(=O)c1ccc(N2CCCCC2)c(N)c1
n
3) Cc1n[nH]c(=S)[nH]c1=O
n
4) CC1(C)Cc2cccc(CO)c2O1
n
5) NC(=O)CNC(=O)c1ccccc1
n
6) Clc1ccccc1OCCn1ccnc1
n
7) CCn1c(-c2c[nH]c3ccccc23)n[nH]c1=S
n
8) OCc1ccccc1N1CCOCC1
n
9) Cc1cc(C(=O)N2CCN(c3ncccn3)CC2)cs1
n
10) O=C(Nc1ccc2c(c1)OCO2)c1cnn2cccnc12
n
11) Nc1cc(=O)[nH]c(SCC(=O)NC2CCCCC2)n1
n
12) O=C(NN=C1CCCC1)c1ccncc1
n
13) COC(=O)/C(=C1\OC(=O)C(c2ccccc2)C1=O)c1ccccc1 (centres undefined)
n
14) CCOc1ccc(C(=O)c2ccncc2)cc1
n
15) O=C(Nc1ccccc1)NC1CCS(=O)(=O)C1 (centres undefined)
n
16) O=C(Nc1nc2c(s1)CCCC2)c1cccnc1
n
17) CN1CCCC1C(=O)O (centres undefined)
n
18) c1cncc(C(N2CCOCC2)N2CCOCC2)c1
n
19) NC(=O)c1cccc2c(=O)oc3ccccc3c12
n
20) CN(C)C(=S)Nc1ccc([N+](=O)[O-])cc1
n
21) C=CCCCCCCCCCCCc1ccco1
n
22) O=C1C2CC=CCC2C(=O)N1c1ccccc1 (centres undefined)
y
23) Cc1occc1C(=O)Nc1ccc(C(N)=O)cc1
n
24) O=C(Cn1c(-c2cscn2)nc2ccccc21)Nc1ccc(Cl)cc1
n
25) COC(=O)c1ccc(N2CCCC2)nc1
n
26) O=C(O)CCCN1CNC(=S)NC1
n
27) C/C(O)=c1/sc2cc(C)nc(=N)n2c1=O
n
28) c1csc(-c2nnc3ccccn23)c1
n
29) Nc1ccccc1C(=O)N1CCNC(=O)C1
n

====

- assay_system: Peptidyl-prolyl cis-trans isomerase FKBP1A (Homo sapiens) (UniProt P62942)
- procedure_details: small-molecule binding to FKBP12 – biophysical, NMR detection (AID 608)
- experimental_conditions: purified FKBP12
Activity calls are given as the source filed them. The rule behind the calls is not given here.
Labels: 1 = active, -1 = inactive

1. Cc1cc(C(=O)NCc2cccs2)cs1
-1
2. COC1=C(OC)C(=O)C(C/C=C(\C)CC/C=C(\C)CC/C=C(\C)CC/C=C(/C)CC/C=C(\C)CC/C=C(\C)CC/C=C(\C)CC/C=C(\C)CC/C=C(\C)CCC=C(C)C)=C(C)C1=O
-1
3. NC(=O)CCn1ncc2ccccc21
-1
4. O=C(CSc1ccc(C(F)(F)F)cc1[N+](=O)[O-])N1CCOCC1
1

====

- assay_system: Peptidyl-prolyl cis-trans isomerase FKBP1A (Homo sapiens) (UniProt P62942)
- procedure_details: small-molecule binding to FKBP12 – biophysical, NMR detection (AID 608)
- experimental_conditions: purified FKBP12
Activity calls are given as the source filed them. How the calls were made is not given here.
Labels: active, inactive

1) CCOC(=O)c1sc(SC)c2c1CCCC2O (stereo not drawn)
inactive
2) CC(C)c1ccc(SCC(=O)N2CCOCC2C(=O)O)cc1 (stereo not drawn)
active
3) Cc1nc2c(n1O)CCc1c-2no[n+]1[O-]
inactive
4) COc1ccc(C(N)=O)cc1N
inactive
5) CCN1CC2(C)CC[C@H](OC)[C@]34C2[C@H](O)C2(OCO[C@@]25C[C@H](OC)[C@H]2C[C@]3(O)C5[C@H]2O)C14
inactive
6) c1ccc(-c2noc(-c3cccnc3)n2)nc1
inactive
7) Nc1ccccc1OC(F)(F)F
inactive
8) CC(C)(O)[C@@H]1Cc2cc3ccc(=O)oc3cc2O1
inactive
